test: Stability in assay media; assay type: in vitro ADME; conditions: read-out: t1/2 in assay media
measured_attribute: half-life

Exam item: Fill in the blank: the reported half-life of CCOC(=O)[C@@](O)(CCc1ccc(C(C)(C)C)cc1)CC(=O)O is ____.
Marked response: > 2 h

----------
target: NaDC3 (SLC13A3) (Homo sapiens, UniProt Q8WWT9); test: Inhibition of citrate or succinate uptake in HEKNaDC3 cells; details: compound 4: mean of 2 replicates
Sequence (Q8WWT9 whole entry): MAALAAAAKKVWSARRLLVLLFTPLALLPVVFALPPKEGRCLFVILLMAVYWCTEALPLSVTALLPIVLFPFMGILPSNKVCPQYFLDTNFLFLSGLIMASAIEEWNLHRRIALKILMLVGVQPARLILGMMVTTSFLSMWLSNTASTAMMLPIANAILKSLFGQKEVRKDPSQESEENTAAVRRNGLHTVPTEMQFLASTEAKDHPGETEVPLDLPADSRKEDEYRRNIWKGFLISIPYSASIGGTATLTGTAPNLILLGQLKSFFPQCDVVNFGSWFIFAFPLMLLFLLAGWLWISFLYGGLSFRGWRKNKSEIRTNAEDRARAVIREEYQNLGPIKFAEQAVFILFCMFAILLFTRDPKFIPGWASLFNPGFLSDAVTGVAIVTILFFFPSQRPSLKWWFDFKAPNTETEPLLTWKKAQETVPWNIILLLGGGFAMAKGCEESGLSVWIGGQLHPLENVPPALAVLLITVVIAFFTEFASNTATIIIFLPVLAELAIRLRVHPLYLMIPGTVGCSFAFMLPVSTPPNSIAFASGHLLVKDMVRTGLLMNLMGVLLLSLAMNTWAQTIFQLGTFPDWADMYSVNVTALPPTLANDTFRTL
measured_attribute: IC50 (µM)
Reply numerically in µM, unit not repeated.

Exam item: Fill in the blank: the reported IC50 of O=C(O)C[C@](O)(CCc1ccc(I)cc1)C(=O)O [Compound 4] is ____.
Marked response: 3.2

----------
test system: Calcium channel, L-type; experiment: Selectivity data (Table S1)
measured_attribute: IC50

Exam item: Fill in the blank: the reported IC50 of CC(C)(C)c1ccc(CC[C@@](O)(CC(=O)O)C(=O)O)cc1 [Compound 2] is ____.
Marked response: > 30 µM

----------
target: Phosphodiesterase 3A1 (PDE3A1) (Homo sapiens)
Sequence (Q14432 whole entry): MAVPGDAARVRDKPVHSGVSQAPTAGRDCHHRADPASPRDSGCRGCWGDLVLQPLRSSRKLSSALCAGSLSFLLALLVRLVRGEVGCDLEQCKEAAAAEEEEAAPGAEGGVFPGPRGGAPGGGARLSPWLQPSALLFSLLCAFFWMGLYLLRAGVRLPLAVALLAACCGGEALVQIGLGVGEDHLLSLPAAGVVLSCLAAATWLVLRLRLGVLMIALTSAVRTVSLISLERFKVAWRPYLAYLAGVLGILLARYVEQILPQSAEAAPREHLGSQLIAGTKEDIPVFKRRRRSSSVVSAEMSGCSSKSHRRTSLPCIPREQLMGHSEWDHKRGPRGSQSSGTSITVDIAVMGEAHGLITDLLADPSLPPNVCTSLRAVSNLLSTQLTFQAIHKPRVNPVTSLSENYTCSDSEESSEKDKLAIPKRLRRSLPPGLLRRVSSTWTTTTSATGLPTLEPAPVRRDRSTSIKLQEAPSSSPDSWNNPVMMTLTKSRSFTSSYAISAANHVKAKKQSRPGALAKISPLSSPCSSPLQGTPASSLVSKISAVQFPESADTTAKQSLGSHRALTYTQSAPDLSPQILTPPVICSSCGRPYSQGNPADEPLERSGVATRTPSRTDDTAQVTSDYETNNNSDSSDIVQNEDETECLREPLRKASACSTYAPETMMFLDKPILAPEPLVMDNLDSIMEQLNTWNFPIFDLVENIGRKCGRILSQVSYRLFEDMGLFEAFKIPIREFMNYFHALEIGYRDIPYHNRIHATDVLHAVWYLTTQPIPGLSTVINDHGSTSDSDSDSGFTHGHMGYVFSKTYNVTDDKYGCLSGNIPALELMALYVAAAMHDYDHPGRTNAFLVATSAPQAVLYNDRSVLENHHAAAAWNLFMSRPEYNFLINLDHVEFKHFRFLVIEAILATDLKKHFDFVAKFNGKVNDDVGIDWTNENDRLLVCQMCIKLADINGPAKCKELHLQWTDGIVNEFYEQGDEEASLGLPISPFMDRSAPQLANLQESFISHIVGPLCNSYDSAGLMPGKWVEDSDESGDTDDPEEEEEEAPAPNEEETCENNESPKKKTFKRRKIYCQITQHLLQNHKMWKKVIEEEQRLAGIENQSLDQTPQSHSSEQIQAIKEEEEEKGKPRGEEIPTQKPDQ
pIC50: −log10 of the molar value.
measured_attribute: pIC50

Exam item: Fill in the blank: the reported pIC50 of CC(C)(C)c1ccc(CC[C@@](O)(CC(=O)O)C(=O)O)cc1 is ____.
Marked response: < 4.52

----------
biological target: ATP-binding cassette, sub-family B, member 11 (ABCB11) (Homo sapiens); assay: Selectivity data (Table S1)
Sequence (O95342 whole entry, species assumed): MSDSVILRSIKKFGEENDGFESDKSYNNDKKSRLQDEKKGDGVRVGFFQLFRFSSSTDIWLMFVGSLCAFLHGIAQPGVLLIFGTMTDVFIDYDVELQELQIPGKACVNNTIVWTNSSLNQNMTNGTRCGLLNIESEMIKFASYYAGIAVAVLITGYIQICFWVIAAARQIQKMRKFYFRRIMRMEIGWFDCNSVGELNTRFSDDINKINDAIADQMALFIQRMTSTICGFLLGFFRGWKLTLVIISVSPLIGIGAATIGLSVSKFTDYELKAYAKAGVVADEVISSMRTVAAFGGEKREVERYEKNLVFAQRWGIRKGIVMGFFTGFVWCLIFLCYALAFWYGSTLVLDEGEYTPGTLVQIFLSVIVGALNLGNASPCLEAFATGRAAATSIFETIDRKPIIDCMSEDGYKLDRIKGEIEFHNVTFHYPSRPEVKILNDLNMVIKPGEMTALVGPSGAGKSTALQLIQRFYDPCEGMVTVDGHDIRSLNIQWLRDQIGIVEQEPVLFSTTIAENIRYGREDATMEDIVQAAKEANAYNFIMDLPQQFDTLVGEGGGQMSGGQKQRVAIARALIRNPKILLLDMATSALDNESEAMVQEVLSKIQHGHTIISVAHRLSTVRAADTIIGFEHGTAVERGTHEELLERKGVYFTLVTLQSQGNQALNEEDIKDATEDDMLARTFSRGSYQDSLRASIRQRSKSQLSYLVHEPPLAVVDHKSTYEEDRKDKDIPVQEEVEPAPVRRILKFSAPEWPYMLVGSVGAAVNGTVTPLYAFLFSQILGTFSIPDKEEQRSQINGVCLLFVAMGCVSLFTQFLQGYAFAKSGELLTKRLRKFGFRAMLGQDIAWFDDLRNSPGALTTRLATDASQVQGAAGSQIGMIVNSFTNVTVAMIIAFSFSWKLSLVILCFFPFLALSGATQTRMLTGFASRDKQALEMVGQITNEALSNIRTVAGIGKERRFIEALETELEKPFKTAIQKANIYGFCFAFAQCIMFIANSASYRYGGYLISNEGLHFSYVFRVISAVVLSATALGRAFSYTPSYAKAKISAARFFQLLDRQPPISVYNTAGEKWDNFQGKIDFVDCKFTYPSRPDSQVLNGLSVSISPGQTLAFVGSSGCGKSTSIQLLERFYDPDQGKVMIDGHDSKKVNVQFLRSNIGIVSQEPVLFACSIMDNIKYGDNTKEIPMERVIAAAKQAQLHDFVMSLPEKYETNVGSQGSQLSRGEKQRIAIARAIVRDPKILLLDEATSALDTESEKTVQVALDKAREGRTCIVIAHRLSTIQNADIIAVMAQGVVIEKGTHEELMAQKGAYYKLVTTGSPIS
measured_attribute: IC50

Exam item: Fill in the blank: the reported IC50 of CC(C)(C)c1ccc(CC[C@@](O)(CC(=O)O)C(=O)O)cc1 is ____.
Marked response: > 200 µM

----------
target: Potassium voltage-gated channel, KQT-like subfamily, member 1 (KCNQ1) (Homo sapiens, UniProt P51787); assay: in vitro
Sequence (P51787 whole entry): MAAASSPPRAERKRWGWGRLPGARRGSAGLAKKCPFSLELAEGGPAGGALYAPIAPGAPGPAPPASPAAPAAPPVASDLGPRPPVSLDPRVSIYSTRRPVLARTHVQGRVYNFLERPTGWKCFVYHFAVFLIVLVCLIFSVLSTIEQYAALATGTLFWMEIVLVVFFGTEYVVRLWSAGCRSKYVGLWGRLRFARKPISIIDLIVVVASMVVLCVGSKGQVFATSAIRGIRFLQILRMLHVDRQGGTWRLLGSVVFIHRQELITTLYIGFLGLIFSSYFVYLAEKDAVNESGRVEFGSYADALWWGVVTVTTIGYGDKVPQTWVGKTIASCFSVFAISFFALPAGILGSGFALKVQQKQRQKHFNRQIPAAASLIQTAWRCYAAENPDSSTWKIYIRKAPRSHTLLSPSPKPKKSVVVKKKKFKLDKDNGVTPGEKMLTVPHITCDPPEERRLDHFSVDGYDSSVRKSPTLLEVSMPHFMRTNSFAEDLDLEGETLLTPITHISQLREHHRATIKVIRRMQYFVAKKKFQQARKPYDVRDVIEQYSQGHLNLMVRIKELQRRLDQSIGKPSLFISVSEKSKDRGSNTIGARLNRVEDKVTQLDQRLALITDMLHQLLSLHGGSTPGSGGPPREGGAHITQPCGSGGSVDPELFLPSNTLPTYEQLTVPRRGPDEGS
measured_attribute: inhibition at 10 µM

Exam item: Fill in the blank: the reported inhibition at 10 µM of CC(C)(C)c1ccc(CC[C@@](O)(CC(=O)O)C(=O)O)cc1 [Compound 2] is ____.
Marked response: < 10%

----------
target: NaCT (SLC13A5) (Homo sapiens, UniProt Q86YT5); test: Inhibition of citrate uptake in HEKNaCT cells; conditions: geometric mean of at least 3 replicates
Sequence (Q86YT5 whole entry): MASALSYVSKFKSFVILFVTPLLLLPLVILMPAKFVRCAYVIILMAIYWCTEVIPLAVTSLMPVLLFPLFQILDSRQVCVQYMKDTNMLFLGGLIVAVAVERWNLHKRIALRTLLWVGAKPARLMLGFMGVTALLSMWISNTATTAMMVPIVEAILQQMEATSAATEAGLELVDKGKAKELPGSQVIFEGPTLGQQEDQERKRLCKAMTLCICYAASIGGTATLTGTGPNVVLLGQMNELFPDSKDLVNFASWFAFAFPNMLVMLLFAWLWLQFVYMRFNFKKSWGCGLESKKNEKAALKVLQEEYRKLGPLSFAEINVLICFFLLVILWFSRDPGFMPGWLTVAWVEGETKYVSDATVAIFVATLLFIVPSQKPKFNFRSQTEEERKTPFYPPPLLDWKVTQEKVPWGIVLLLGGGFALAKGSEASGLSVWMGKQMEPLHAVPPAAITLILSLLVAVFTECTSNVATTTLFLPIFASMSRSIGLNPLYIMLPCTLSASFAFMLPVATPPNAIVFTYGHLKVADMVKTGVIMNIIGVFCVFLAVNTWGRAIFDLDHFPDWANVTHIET
measured_attribute: IC50

Exam item: Fill in the blank: the reported IC50 of CCOC(=O)[C@@](O)(CCc1ccc(C(C)(C)C)cc1)CC(=O)O [Compound 5] is ____.
Marked response: > 25 µM

----------
molecular target: Diacylglycerol acyltransferase 1 (DGAT1) (Homo sapiens, UniProt O75907)
Sequence (O75907 whole entry, species assumed): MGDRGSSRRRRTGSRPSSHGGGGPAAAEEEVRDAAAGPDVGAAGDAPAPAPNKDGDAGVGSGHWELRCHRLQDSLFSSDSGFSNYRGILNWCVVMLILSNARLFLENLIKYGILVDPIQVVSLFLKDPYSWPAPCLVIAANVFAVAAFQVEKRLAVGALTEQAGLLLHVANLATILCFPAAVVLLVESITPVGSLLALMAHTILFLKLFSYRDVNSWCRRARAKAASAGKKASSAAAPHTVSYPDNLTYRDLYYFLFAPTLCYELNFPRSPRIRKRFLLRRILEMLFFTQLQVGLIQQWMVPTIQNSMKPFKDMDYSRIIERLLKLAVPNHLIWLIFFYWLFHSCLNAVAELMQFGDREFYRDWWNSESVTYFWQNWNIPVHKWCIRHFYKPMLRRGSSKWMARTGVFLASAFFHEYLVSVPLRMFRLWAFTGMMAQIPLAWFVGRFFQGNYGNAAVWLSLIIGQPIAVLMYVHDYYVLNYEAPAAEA
measured_attribute: IC50

Exam item: Please tell me: IC50 of CC(C)(C)c1ccc(CC[C@@](O)(CC(=O)O)C(=O)O)cc1 [Compound 2] , system Diacylglycerol acyltransferase 1 (DGAT1) (Homo sapiens, UniProt O75907)?
Marked response: > 50 µM

----------
molecular target: CYP1A2 (Homo sapiens, UniProt P05177); test: Selectivity data (Table S1); format: in vitro ADME; details: 3 µM
measured_attribute: inhibition at 3 µM

Exam item: Fill in the blank: the reported inhibition at 3 µM of CC(C)(C)c1ccc(CC[C@@](O)(CC(=O)O)C(=O)O)cc1 is ____.
Marked response: < 10%

----------
assay: Aqueous solubility; assay type: physicochemical; conditions: aqueous medium at pH 7.4, pH 7.4, aqueous buffer; read-out: Solubility7.4
measured_attribute: solubility (mM)
Reply numerically in mM, unit not repeated.

Exam item: Fill in the blank: the reported solubility of CC(C)(C)c1ccc(CC[C@@](O)(CC(=O)O)C(=O)O)cc1 is ____.
Marked response: 33

The values you see were collected from paper PMC4664966.
